Property: IC50; scope: individual compounds
experimental.target: KRAS G12V (Homo sapiens (Human), UniProt P01116+P62937, G12V)
Sequence (P01116 other isoform, or with tags, fused parts or gaps G12V): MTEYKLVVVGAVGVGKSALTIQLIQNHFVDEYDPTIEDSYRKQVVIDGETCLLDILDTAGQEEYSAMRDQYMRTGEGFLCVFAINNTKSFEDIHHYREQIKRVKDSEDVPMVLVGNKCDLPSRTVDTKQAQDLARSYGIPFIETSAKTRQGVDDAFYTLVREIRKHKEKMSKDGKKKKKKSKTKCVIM
Sequence (P62937 whole entry): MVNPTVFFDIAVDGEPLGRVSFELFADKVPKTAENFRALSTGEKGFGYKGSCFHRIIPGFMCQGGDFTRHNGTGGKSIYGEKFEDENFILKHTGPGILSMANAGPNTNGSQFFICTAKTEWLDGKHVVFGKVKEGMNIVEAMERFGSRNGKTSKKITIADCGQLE
experiment.summary: Ras-Raf disruption/FRET/MOA assay (BRAF RBD, Cyclophilin A)
Assay type: biochemical
condition.set: read-out: KRAS G12V FRET IC50

compound	reading
CCn1c(-c2cccnc2[C@H](C)OC)c2c3cc(ccc31)-c1csc(n1)C[C@H](NC(=O)[C@H](C(C)C)N(C)C(=O)N1CC[C@@H]1C)C(=O)N1CCC[C@H](N1)C(=O)OCC(C)(C)C2 [Compound A304]	100 to 1000 nM
CCn1c(-c2cccnc2[C@H](C)OC)c2c3cc(ccc31)-c1csc(n1)C[C@H](NC(=O)N1CCOCC1)C(=O)N1CCC[C@H](N1)C(=O)OCC(C)(C)C2 [Compound A270]	100 to 1000 nM
CCn1c(-c2cccnc2[C@H](C)OC)c2c3cc(ccc31)-c1cc(O)cc(c1)C[C@H](NC(=O)[C@H](C(C)C)N(C)C(=O)C1CC1)C(=O)N1CCC[C@H](N1)C(=O)OCC(C)(C)C2 [Compound A224]	10 to 100 nM
CCn1c(-c2cccnc2[C@H](C)OC)c2c3cc(ccc31)-c1csc(n1)C[C@H](NC(=O)[C@H](C(C)C)N(C)C(=O)N1CCS(=O)(=O)CC1)C(=O)N1CCC[C@H](N1)C(=O)OCC(C)(C)C2 [Compound A357]	100 to 1000 nM
CCn1c(-c2cccnc2[C@H](C)OC)c2c3cc(ccc31)-c1cc(O)cc(c1)C[C@H](NC(=O)[C@H](C(C)C)N(C)C(=O)[C@@H]1[C@@H]3CNC[C@@H]31)C(=O)N1CCC[C@H](N1)C(=O)OCC(C)(C)C2 [Compound A164]	10 to 100 nM
CCn1c(-c2cccnc2[C@H](C)OC)c2c3cc(ccc31)-c1cc(O)cc(c1)C[C@H](NS(=O)(=O)N1CCC1)C(=O)N1CCC[C@H](N1)C(=O)OCC(C)(C)C2 [Compound A189]	> 10000 nM
CCn1c(-c2cccnc2[C@H](C)OC)c2c3cc(ccc31)-c1csc(n1)C[C@H](NC(=O)[C@H](C(C)C)N(C)C(=O)N1CCCC3(CN(C)C3)C1)C(=O)N1CCC[C@H](N1)C(=O)OCC(C)(C)C2 [Compound A589]	100 to 1000 nM
CCn1c(-c2cccnc2[C@H](C)OC)c2c3cc(ccc31)-c1csc(n1)C[C@H](NC(=O)[C@H](C(C)C)N(C)C(=O)N(C)C[C@H]1CCCN1C)C(=O)N1CCC[C@H](N1)C(=O)OCC(C)(C)C2 [Compound A473]	1000 to 10000 nM

Turning now to a further record.
Record CCn1c(-c2cnccc2COC)c2c3cc(ccc31)-c1cc(O)cc(c1)C[C@H](NC(=O)[C@H](C(C)C)N(C)C(=O)[C@H]1CCN(C[C@H](C)O)C1)C(=O)N1CCC[C@H](N1)C(=O)OCC(C)(C)C2 [Compound A47] / KRAS G12V (Homo sapiens (Human), UniProt P01116+P62937, G12V), IC50 recorded as > 10000 nM
